observable: glass transition temperature (°C)
Respond with the bare value in °C.

compound="*C(=O)c1ccc(N(*)CCCCCCC)cc1 (repeat unit)" observable="glass transition temperature" reading=45.90
compound="*Oc1ccc(S(=O)(=O)c2ccc(Oc3ccc(S(=O)(=O)c4ccc(-c5ccc(-c6ccc(S(=O)(=O)c7ccc(*)cc7)cc6)cc5)cc4)cc3)cc2)cc1 (repeat unit)" observable="glass transition temperature" reading=281.00
compound="*Oc1ccc(C2(c3ccc(Oc4nc(*)nc(OC)n4)cc3)CCCCC2)cc1 (repeat unit)" observable="glass transition temperature" reading=200.00
compound="*OC(=O)c1ccc(C(=O)Oc2ccc3c(c2)Oc2cc(*)ccc2C32c3ccccc3-c3ccccc32)cc1 (repeat unit)" observable="glass transition temperature" reading=290.00
compound="*CC(*)(CC(=O)OC(C)C)C(=O)OC12CC3CC(C)(CC(C)(C3)C1)C2 (repeat unit)" observable="glass transition temperature" reading=158.00

Given the entry *CC(*)(C)C(=O)OCCCCCCCCCCCCOc1ccc2cc(C(=O)Oc3ccccc3)ccc2c1 (repeat unit) , report its measured glass transition temperature.
12.00

Quick check: glass transition temperature of *Nc1ccc(C(C)(C)c2ccc(NC(=O)c3cc(C(*)=O)cc(N4C(=O)C5CC=CCC5C4=O)c3)cc2)cc1 (repeat unit) ?
308.00

Item *c1ccc(Oc2ccc(Oc3ccc(-n4c(=O)c5cc6c(=O)n(*)c(=O)c6cc5c4=O)cc3)cc2C)cc1 (repeat unit) has what recorded glass transition temperature?
310.00

Consider the compound *CC(*)C(=O)OCCC(F)(F)C(F)(F)C(F)(F)C(F)(F)C(F)(F)C(F)(F)C(F)(F)C(F)(F)F (repeat unit) and give its measured glass transition temperature.
52.00

# get_value(readout='glass transition temperature', item= *C(=O)c1ccc2c(c1)C(=O)N(c1cccc(C(=O)c3ccc(Oc4ccc(N5C(=O)c6ccc(*)cc6C5=O)cc4)cc3)c1)C2=O (repeat unit) )
251.00

Query (compound): *C(=O)Nc1cccc(NC(=O)c2cccc(NC(=O)c3ccc(-c4nc5cc(*)ccc5[nH]4)cc3)c2)c1 (repeat unit) ; field requested: glass transition temperature
292.00

I have this compound here, *c1ccc(Cc2ccc(N3C(=O)C(C)C(SCCOCCSC4C(=O)N(c5ccc(Cc6ccc(N7C(=O)CC(C)(SCCOCCSC8(C)CC(=O)N(*)C8=O)C7=O)cc6)cc5)C(=O)C4C)C3=O)cc2)cc1 (repeat unit) , and I need its recorded glass transition temperature.
105.00

Give the measured glass transition temperature of *c1ccc(Cc2ccc(N3C(=O)CC(Nc4ccc(Cc5ccc(NC6CC(=O)N(*)C6=O)cc5)cc4)C3=O)cc2)cc1 (repeat unit) .
239.00

Form field: reported glass transition temperature of *c1ccc(OC(=O)c2ccc(C(=O)Oc3ccc(C4(*)OC(=O)c5ccccc54)cc3)cc2)cc1 (repeat unit)
279.00

Please report the recorded glass transition temperature for *CC(*)c1cccc(C)c1 (repeat unit) .
95

I would be grateful if you could share the reported glass transition temperature for *c1ccc(-c2cc3c(ccc4ccccc43)cc2-c2ccc(N(*)c3ccc(C)cc3)cc2)cc1 (repeat unit) .
126.00

Any idea what glass transition temperature was measured for *N=P(N=P(/N=S(/*)Oc1ccc(-c2ccccc2)cc1)(Oc1ccc(-c2ccccc2)cc1)Oc1ccc(-c2ccccc2)cc1)(Oc1ccc(-c2ccccc2)cc1)Oc1ccc(-c2ccccc2)cc1 (repeat unit) ?
69.00

Could you tell me which glass transition temperature is on file for *CC(*)C(=O)N1CC[NH+](CC)CC1 (repeat unit) ?
72.50

Please report the recorded glass transition temperature for *CCCCCCCCCCNC(=O)c1ccc(C(=O)N*)c(Sc2ccccc2)c1 (repeat unit) .
100.00

Quick one: glass transition temperature for *CC(*)CCCCCCCC (repeat unit) ?
-35.00
